system: Monocotyledonous and dicotyledonous test plants; assay: Post-emergence herbicidal action, greenhouse pot test, sprayed at the 2- to 3-leaf stage, 9-level rating after 2 to 3 weeks; type: in vivo; settings: Ipopur., 250 g/ha, rated after 2 to 3 weeks, 9-level scale
Please go through the items and note down their Post-emergence action rating, Ipopur..

Input line: Report Post-emergence action rating, Ipopur., nothing else, for this compound: O=C(C1=C(O)C2CCC(C2)C1=O)c1ccc(C(F)(F)F)nc1COCC1CC1 (stereo not drawn) [A56-B52]
Output line: 2

Input line: Report Post-emergence action rating, Ipopur., nothing else, for this compound: O=C(C1=C(O)C2CCC(C2)C1=O)c1ccc(C(F)(F)F)nc1COCCOCOCc1ccccc1 (stereo not drawn) [A857-B52]
Output line: 2

Input line: Report Post-emergence action rating, Ipopur., nothing else, for this compound: CN(Cc1nc(C(F)(F)F)ccc1C(=O)C1=C(O)C2CCC(C2)C1=O)S(C)(=O)=O (stereo not drawn) [A864-B52]
Output line: 2

Input line: Report Post-emergence action rating, Ipopur., nothing else, for this compound: COCCOCCOCc1nc(C(F)(F)F)ccc1C(=O)C1=C(O)C2CCC(C2)C1=O (stereo not drawn) [A835-B52]
Output line: 2

Input line: Report Post-emergence action rating, Ipopur., nothing else, for this compound: CCN(CC)CC.COCCOCc1nc(C(F)(F)F)ccc1C(=O)C1=C(O)C2CCC(C2)C1=O (stereo not drawn) [A10-B52 (Et3NH+)]
Output line: 2

Input line: Report Post-emergence action rating, Ipopur., nothing else, for this compound: O=C(C1=C(O)C2CCC(C2)C1=O)c1ccc(C(F)(F)F)nc1COCc1cccs1 (stereo not drawn) [A854-B52]
Output line: 2

Input line: Report Post-emergence action rating, Ipopur., nothing else, for this compound: CC#CCOCc1nc(C(F)(F)F)ccc1C(=O)C1=C(O)C2CCC(C2)C1=O (stereo not drawn) [A20-B52]
Output line: 2

Input line: Report Post-emergence action rating, Ipopur., nothing else, for this compound: COCCOCc1nc(C(F)(F)F)ccc1C(=O)C1=C(O)C2CCC(C2)C1=O (stereo not drawn) [A10-B52, (H3)]
Output line: 2

Input line: Report Post-emergence action rating, Ipopur., nothing else, for this compound: COCCOCc1nc(C(F)(F)F)ccc1C(=O)c1cnn(C)c1O [A10-C5]
Output line: 2

Input line: Report Post-emergence action rating, Ipopur., nothing else, for this compound: COCCOCCOCCOCc1nc(C(F)(F)F)ccc1C(=O)C1=C(O)C2CCC(C2)C1=O (stereo not drawn) [A858-B52]
Output line: 2

Input line: Report Post-emergence action rating, Ipopur., nothing else, for this compound: CC(=O)OCCOCc1nc(C(F)(F)F)ccc1C(=O)C1=C(O)C2CCC(C2)C1=O (stereo not drawn) [A861-B52]
Output line: 2

Input line: Report Post-emergence action rating, Ipopur., nothing else, for this compound: O=C(C1=C(O)C2CCC(C2)C1=O)c1ccc(C(F)(F)F)nc1COCC1CCCCO1 (stereo not drawn) [A63-B52]
Output line: 2

Input line: Report Post-emergence action rating, Ipopur., nothing else, for this compound: COCc1nc(C(F)(F)F)ccc1C(=O)c1cnn(C)c1O [A1-C5]
Output line: 2

Input line: Report Post-emergence action rating, Ipopur., nothing else, for this compound: CSc1nnc(SCc2nc(C(F)(F)F)ccc2C(=O)C2=C(O)C3CCC(C3)C2=O)s1 (stereo not drawn) [A829-B52]
Output line: 4

Input line: Report Post-emergence action rating, Ipopur., nothing else, for this compound: COc1ccccc1OCc1nc(C(F)(F)F)ccc1C(=O)C1=C(O)C2CCC(C2)C1=O (stereo not drawn) [A33-B52]
Output line: 2

Input line: Report Post-emergence action rating, Ipopur., nothing else, for this compound: CCOCc1nc(C(F)(F)F)ccc1C(=O)c1cnn(C)c1O [A2-C5]
Output line: 2

Input line: Report Post-emergence action rating, Ipopur., nothing else, for this compound: CCC(OC)OCCOCc1nc(C(F)(F)F)ccc1C(=O)C1=C(O)C2CCC(C2)C1=O (stereo not drawn) [A838-B52]
Output line: 2

Input line: Report Post-emergence action rating, Ipopur., nothing else, for this compound: CC(C)(C)C(=O)OCc1nc(C(F)(F)F)ccc1C(=O)C1=C(O)C2CCC(C2)C1=O (stereo not drawn) [A839-B52]
Output line: 2

Input line: Report Post-emergence action rating, Ipopur., nothing else, for this compound: CCOCCOCc1nc(C(F)(F)F)ccc1C(=O)c1cnn(C)c1OS(C)(=O)=O [A11-C28]
Output line: 3

Input line: Report Post-emergence action rating, Ipopur., nothing else, for this compound: O=C(C1=C(O)C2CCC(C2)C1=O)c1ccc(C(F)(F)F)nc1COC1CCCCO1 (stereo not drawn) [A28-B52]
Output line: 4

Input line: Report Post-emergence action rating, Ipopur., nothing else, for this compound: CN(Cc1nc(C(F)(F)F)ccc1C(=O)c1cnn(C)c1O)S(C)(=O)=O [A864-C5]
Output line: 2

Input line: Report Post-emergence action rating, Ipopur., nothing else, for this compound: O=C(C1=C(O)C2CCC(C2)C1=O)c1ccc(C(F)(F)F)nc1COCCO (stereo not drawn) [A856-B52]
Output line: 1

Input line: Report Post-emergence action rating, Ipopur., nothing else, for this compound: COCCCOCc1nc(C(F)(F)F)ccc1C(=O)C1=C(O)C2CCC(C2)C1=O (stereo not drawn) [A846-B52]
Output line: 1

Input line: Report Post-emergence action rating, Ipopur., nothing else, for this compound: COCCOCc1nc(C(F)(F)F)ccc1C(=O)C1=C(O)CCCC1=O [A10-B1]
Output line: 2

Input line: Report Post-emergence action rating, Ipopur., nothing else, for this compound: COCCOCc1nc(C(F)(F)F)ccc1C(=O)c1c(C)nn(C)c1O [A10-C2 (H6)]
Output line: 3

Input line: Report Post-emergence action rating, Ipopur., nothing else, for this compound: COCCOCc1nc(C(F)(F)F)ccc1C(=O)C1=C(O)C(C)(C)CC(C)C1=O (stereo not drawn) [A10-B4]
Output line: 1

Input line: Report Post-emergence action rating, Ipopur., nothing else, for this compound: CSc1nnc(SCc2nc(C(F)(F)F)ccc2C(=O)C2=C(O)CCCC2=O)s1 [A829-B1]
Output line: 6
